System: KB cell
Test: Cancer cell growth inhibitory activity (KB cells, MTT)
Format: cell-based
Conditions: Homo sapiens, KB, 72 h, read-out: Inhibitory activity (IC50, μM) Cancer cell growth
Protocol: The compounds of the invention were evaluated their tyrosine kinase inhibitory activities with partially purified EGF (epidermal cell growth factor) receptor preparation and cell growth inhibitory activity with human cancer cells. Cancer Cell Growth Inhibitory Activity […] The amount of living cells were measured by calorimetric determination at wave lengths of 550 nm and 650 nm after developing colour by MTT reagent, in accordance with the method of Michael C. […]

- Compound: "COc1ccc(C(=O)/C=C/C(N)=O)cc1OC [Compound 2]"
  IC50 / µM: 0.92
- Compound: "COc1ccc(C(=O)/C=C/C(=O)NCc2ccccc2)cc1OC [Compound 19]"
  IC50 / µM: 0.97
- Compound: "COc1ccc(C(=O)/C=C/C(=O)Nc2ccccc2)cc1OC [Compound 59]"
  IC50 / µM: 0.45
- Compound: "COc1ccc(C(=O)/C=C/C(=O)Nc2ccccc2)cc1 [Compound 58]"
  IC50 / µM: 0.34
- Compound: "COc1cc(C(=O)/C=C/C(=O)Nc2ccccc2)ccc1OC(F)F [Compound 64]"
  IC50 / µM: 1.1
- Compound: "COc1cc(C(=O)/C=C/C(=O)Nc2ccccc2)ccc1OCc1ccccc1 [Compound 67]"
  IC50 / µM: 0.58
- Compound: "COc1ccc(C(=O)/C=C/C(=O)Nc2cccc(C)c2)cc1OC [Compound 83]"
  IC50 / µM: 0.95
